For each of the variants below, state its abundance fitness.
B1: Intersectin-1, residues 909 to 971; numbered along this chain, Q15811 (parent)
chain: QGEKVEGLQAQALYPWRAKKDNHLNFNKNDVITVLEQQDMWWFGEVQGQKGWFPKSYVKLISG

- Variants of: B1
- experiment_description: abundance fitness (aPCA) (normalised: wild type 0, dead -1); higher = more abundant; growth selection in yeast, the domain comes from the species named
- measurement_setup: Homo sapiens
Answers are plain numbers.

Worked examples, 3 variants total:
changes | abundance fitness
S56M | -0.238
V46D | -0.384
S56T | -0.016

Field: next variant
Task item: Fill in the blank: the reported abundance fitness of Y57H is ____.
Reply: -0.238
